Structures can show the parent of a compound that is named as a salt.
parameter-measured: melting point

Quick note, melting point for Nc1cccc(-c2ccc(CCN3CCC(N)(C(=O)NCCc4ccccc4)CC3)cc2)n1 (as salt: hydrochloride) [Example 79] landed at 215 to 219 °C (dec.)

====

Measured melting point accompanies every entry in the list below.
Structures can show the parent of a compound that is named as a salt.

Take a look at these entries with their results.
>  <compound>
Nc1cccc(-c2ccc(CCN3CCC(NC(=O)Cc4ccc(F)cc4)C3)cc2)n1 (stereo not shown)

>  <result>
90 °C (dec.)

$$$$
>  <compound>
Nc1cccc(-c2ccc(CCCNC3CCc4ccccc4C3)cc2)n1 (stereo not shown) (as salt: hydrochloride)

>  <result>
120 to 130 °C

$$$$
>  <compound>
Nc1cccc(-c2ccc(CCN3CCC(NC(=O)NC4CCCCC4)C3)cc2)n1 (stereo not shown) (as salt: hydrochloride)

>  <result>
120 °C (dec.)

$$$$
>  <compound>
Nc1cccc(-c2ccc(CCNC3CCN(C(=O)Nc4ccccc4)C3)cc2)n1 (stereo not shown) (as salt: hydrochloride)

>  <result>
130 °C (dec.)

$$$$

Quick note, melting point for CN1CC2CC1CN2CCc1ccc(-c2cccc(N)n2)cc1 (stereo not shown) (as salt: hydrochloride) landed at 132 °C (dec.)

Quick note, melting point for Nc1cccc(-c2ccc(CCNC3CC4CCC(C3)N4Cc3ccc(Cl)cc3)cc2)n1 (stereo not shown) (as salt: hydrochloride) landed at 198 °C (dec.)

Quick note, melting point for Nc1cccc(-c2ccc(CCN3CCN(CCc4ccc(F)cc4)CC3)cc2)n1 landed at 165 to 167 °C

Quick note, melting point for Nc1cccc(-c2ccc(CCN3CCN(C(=O)Cc4ccc(F)cc4)CC3)cc2)n1 landed at 143 to 145 °C
